System: NCI/ADR-RES ovarian
Test: NCI-60 one-dose screen, 48 h
Conditions: 10 µM unless noted
This is part of a sample that, as a whole, favours compounds with a hit. Of some 83,000 tested, about 20% had one in any assay. The source made the active and inactive calls. Rule for the calls: active = growth percent below 10; inactive = the rest.
Thanks in advance; please answer with one of these: Y = active, N = inactive

samplesmiles=O=C(/C=C/c1sc(Cl)nc1Cl)c1ccc(Br)cc1 targetsystem="NCI/ADR-RES ovarian" cat=N
samplesmiles=Cc1cc(=O)[nH]c(=O)n1Cc1cn(-c2c3ccccc3nc3ccccc23)nn1 targetsystem="NCI/ADR-RES ovarian" cat=N
samplesmiles=Cc1nc(/N=C(\N)NC(=O)Nc2cccc(Cl)c2)sc1C targetsystem="NCI/ADR-RES ovarian" cat=N
samplesmiles=CCC(C)(c1cc(C(C)(C)C)c(O)c(C(C)(C)C)c1)c1cc(C(C)(C)C)c(O)c(C(C)(C)C)c1 targetsystem="NCI/ADR-RES ovarian" cat=N

Turning now to a further record.
Which outcome was entered for the molecule COc1ccccc1/C=C1\Oc2cc(OCCN3CCC(Cc4ccccc4)CC3)ccc2C1=O in this test?
N
